B1: glmS ribozyme (parent)
chain: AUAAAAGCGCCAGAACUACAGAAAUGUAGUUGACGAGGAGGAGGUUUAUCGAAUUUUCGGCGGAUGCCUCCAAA

Variants of: B1
ASSAY METHOD TEXT: self-cleavage kobs at 160 uM GlcN6P; higher = faster cleavage; RNA array
CONDITION SUMMARY: with glucosamine-6-phosphate
Fewer inactive variants are shown than the library holds.
Recorded self-cleavage kobs at 160 uM GlcN6P values for a group of variants are listed next.
READOUT NAME: self-cleavage kobs at 160 uM GlcN6P

>  <MUT>
G32A U55A

>  <READOUT NAME>
self-cleavage kobs at 160 uM GlcN6P

>  <EXPERIMENTAL VALUE>
0.00014 s⁻¹

$$$$
>  <MUT>
G7A A15U

>  <READOUT NAME>
self-cleavage kobs at 160 uM GlcN6P

>  <EXPERIMENTAL VALUE>
< 1e-05 s⁻¹

$$$$
>  <MUT>
A15C G32C A48C

>  <READOUT NAME>
self-cleavage kobs at 160 uM GlcN6P

>  <EXPERIMENTAL VALUE>
< 1e-05 s⁻¹

$$$$
>  <MUT>
A48C U55A G66C

>  <READOUT NAME>
self-cleavage kobs at 160 uM GlcN6P

>  <EXPERIMENTAL VALUE>
< 1e-05 s⁻¹

$$$$
>  <MUT>
A39U G51A

>  <READOUT NAME>
self-cleavage kobs at 160 uM GlcN6P

>  <EXPERIMENTAL VALUE>
< 1e-05 s⁻¹

$$$$
>  <MUT>
A42C A52G U55A U57G C68U C70U

>  <READOUT NAME>
self-cleavage kobs at 160 uM GlcN6P

>  <EXPERIMENTAL VALUE>
< 1e-05 s⁻¹

$$$$
>  <MUT>
A12U A15C A42G

>  <READOUT NAME>
self-cleavage kobs at 160 uM GlcN6P

>  <EXPERIMENTAL VALUE>
0.00123 s⁻¹

$$$$
>  <MUT>
C11G A33U U49C C50U U65C

>  <READOUT NAME>
self-cleavage kobs at 160 uM GlcN6P

>  <EXPERIMENTAL VALUE>
< 1e-05 s⁻¹

$$$$
>  <MUT>
A14G C34A G44U C68U

>  <READOUT NAME>
self-cleavage kobs at 160 uM GlcN6P

>  <EXPERIMENTAL VALUE>
< 1e-05 s⁻¹

$$$$
>  <MUT>
U46C C61G

>  <READOUT NAME>
self-cleavage kobs at 160 uM GlcN6P

>  <EXPERIMENTAL VALUE>
< 1e-05 s⁻¹

$$$$
>  <MUT>
C10U A52U

>  <READOUT NAME>
self-cleavage kobs at 160 uM GlcN6P

>  <EXPERIMENTAL VALUE>
< 1e-05 s⁻¹

$$$$
>  <MUT>
U30G G63A

>  <READOUT NAME>
self-cleavage kobs at 160 uM GlcN6P

>  <EXPERIMENTAL VALUE>
< 1e-05 s⁻¹

$$$$
>  <MUT>
G9A G37A

>  <READOUT NAME>
self-cleavage kobs at 160 uM GlcN6P

>  <EXPERIMENTAL VALUE>
< 1e-05 s⁻¹

$$$$
>  <MUT>
G40A C71U

>  <READOUT NAME>
self-cleavage kobs at 160 uM GlcN6P

>  <EXPERIMENTAL VALUE>
0.00194 s⁻¹

$$$$
>  <MUT>
C16G A53C

>  <READOUT NAME>
self-cleavage kobs at 160 uM GlcN6P

>  <EXPERIMENTAL VALUE>
4.82e-05 s⁻¹

$$$$
>  <MUT>
G43U C67G

>  <READOUT NAME>
self-cleavage kobs at 160 uM GlcN6P

>  <EXPERIMENTAL VALUE>
0.00022 s⁻¹

$$$$
>  <MUT>
C10U A33C G59A G66U

>  <READOUT NAME>
self-cleavage kobs at 160 uM GlcN6P

>  <EXPERIMENTAL VALUE>
< 1e-05 s⁻¹

$$$$
>  <MUT>
C8A G9A G37U A39G

>  <READOUT NAME>
self-cleavage kobs at 160 uM GlcN6P

>  <EXPERIMENTAL VALUE>
< 1e-05 s⁻¹

$$$$
>  <MUT>
U49A C58A

>  <READOUT NAME>
self-cleavage kobs at 160 uM GlcN6P

>  <EXPERIMENTAL VALUE>
< 1e-05 s⁻¹

$$$$
>  <MUT>
C16U G40A

>  <READOUT NAME>
self-cleavage kobs at 160 uM GlcN6P

>  <EXPERIMENTAL VALUE>
0.000448 s⁻¹

$$$$
>  <MUT>
C8A G40U

>  <READOUT NAME>
self-cleavage kobs at 160 uM GlcN6P

>  <EXPERIMENTAL VALUE>
< 1e-05 s⁻¹

$$$$
>  <MUT>
A6U U56C

>  <READOUT NAME>
self-cleavage kobs at 160 uM GlcN6P

>  <EXPERIMENTAL VALUE>
< 1e-05 s⁻¹

$$$$
>  <MUT>
G43A C67G

>  <READOUT NAME>
self-cleavage kobs at 160 uM GlcN6P

>  <EXPERIMENTAL VALUE>
0.000114 s⁻¹

$$$$
>  <MUT>
A14U U69C

>  <READOUT NAME>
self-cleavage kobs at 160 uM GlcN6P

>  <EXPERIMENTAL VALUE>
0.000147 s⁻¹

$$$$
>  <MUT>
A14G U46A

>  <READOUT NAME>
self-cleavage kobs at 160 uM GlcN6P

>  <EXPERIMENTAL VALUE>
0.000271 s⁻¹

$$$$
>  <MUT>
A42C A64G

>  <READOUT NAME>
self-cleavage kobs at 160 uM GlcN6P

>  <EXPERIMENTAL VALUE>
< 1e-05 s⁻¹

$$$$
>  <MUT>
A15G G43U

>  <READOUT NAME>
self-cleavage kobs at 160 uM GlcN6P

>  <EXPERIMENTAL VALUE>
< 1e-05 s⁻¹

$$$$
>  <MUT>
C8G C16G

>  <READOUT NAME>
self-cleavage kobs at 160 uM GlcN6P

>  <EXPERIMENTAL VALUE>
< 1e-05 s⁻¹

$$$$
>  <MUT>
C8U A15U

>  <READOUT NAME>
self-cleavage kobs at 160 uM GlcN6P

>  <EXPERIMENTAL VALUE>
< 1e-05 s⁻¹

$$$$
>  <MUT>
C16A A52C

>  <READOUT NAME>
self-cleavage kobs at 160 uM GlcN6P

>  <EXPERIMENTAL VALUE>
< 1e-05 s⁻¹

$$$$
>  <MUT>
G7U G41U G59U A64G

>  <READOUT NAME>
self-cleavage kobs at 160 uM GlcN6P

>  <EXPERIMENTAL VALUE>
< 1e-05 s⁻¹

$$$$
>  <MUT>
U30G G32A

>  <READOUT NAME>
self-cleavage kobs at 160 uM GlcN6P

>  <EXPERIMENTAL VALUE>
0.00017 s⁻¹

$$$$
>  <MUT>
U54G U69G

>  <READOUT NAME>
self-cleavage kobs at 160 uM GlcN6P

>  <EXPERIMENTAL VALUE>
8.46e-05 s⁻¹

$$$$
>  <MUT>
G35A A48G G51C A64C

>  <READOUT NAME>
self-cleavage kobs at 160 uM GlcN6P

>  <EXPERIMENTAL VALUE>
< 1e-05 s⁻¹

$$$$
>  <MUT>
C8U A15U U31G

>  <READOUT NAME>
self-cleavage kobs at 160 uM GlcN6P

>  <EXPERIMENTAL VALUE>
< 1e-05 s⁻¹

$$$$
>  <MUT>
C11G G38U

>  <READOUT NAME>
self-cleavage kobs at 160 uM GlcN6P

>  <EXPERIMENTAL VALUE>
< 1e-05 s⁻¹

$$$$
>  <MUT>
U45A G60A

>  <READOUT NAME>
self-cleavage kobs at 160 uM GlcN6P

>  <EXPERIMENTAL VALUE>
< 1e-05 s⁻¹

$$$$
>  <MUT>
C10A U57A A64G C67G C71A

>  <READOUT NAME>
self-cleavage kobs at 160 uM GlcN6P

>  <EXPERIMENTAL VALUE>
0.000245 s⁻¹

$$$$
>  <MUT>
U30G G44U

>  <READOUT NAME>
self-cleavage kobs at 160 uM GlcN6P

>  <EXPERIMENTAL VALUE>
< 1e-05 s⁻¹

$$$$
>  <MUT>
G32A A42G G43C G51U G66C

>  <READOUT NAME>
self-cleavage kobs at 160 uM GlcN6P

>  <EXPERIMENTAL VALUE>
< 1e-05 s⁻¹

$$$$
>  <MUT>
A14C G29U C50U A52G C58G

>  <READOUT NAME>
self-cleavage kobs at 160 uM GlcN6P

>  <EXPERIMENTAL VALUE>
0.000474 s⁻¹

$$$$
>  <MUT>
G44U A52C

>  <READOUT NAME>
self-cleavage kobs at 160 uM GlcN6P

>  <EXPERIMENTAL VALUE>
< 1e-05 s⁻¹

$$$$
>  <MUT>
A14C G32U

>  <READOUT NAME>
self-cleavage kobs at 160 uM GlcN6P

>  <EXPERIMENTAL VALUE>
6.08e-05 s⁻¹

$$$$
>  <MUT>
U30A G51U

>  <READOUT NAME>
self-cleavage kobs at 160 uM GlcN6P

>  <EXPERIMENTAL VALUE>
< 1e-05 s⁻¹

$$$$
>  <MUT>
G44U U45G U69A

>  <READOUT NAME>
self-cleavage kobs at 160 uM GlcN6P

>  <EXPERIMENTAL VALUE>
< 1e-05 s⁻¹

$$$$
>  <MUT>
A36U A64G C68G

>  <READOUT NAME>
self-cleavage kobs at 160 uM GlcN6P

>  <EXPERIMENTAL VALUE>
7.51e-05 s⁻¹

$$$$
>  <MUT>
C11A U49C

>  <READOUT NAME>
self-cleavage kobs at 160 uM GlcN6P

>  <EXPERIMENTAL VALUE>
< 1e-05 s⁻¹

$$$$
>  <MUT>
A12G U45A

>  <READOUT NAME>
self-cleavage kobs at 160 uM GlcN6P

>  <EXPERIMENTAL VALUE>
0.000103 s⁻¹

$$$$
>  <MUT>
G63A G66C

>  <READOUT NAME>
self-cleavage kobs at 160 uM GlcN6P

>  <EXPERIMENTAL VALUE>
< 1e-05 s⁻¹

$$$$
>  <MUT>
G32C U45G

>  <READOUT NAME>
self-cleavage kobs at 160 uM GlcN6P

>  <EXPERIMENTAL VALUE>
< 1e-05 s⁻¹

$$$$
>  <MUT>
G41A U49C

>  <READOUT NAME>
self-cleavage kobs at 160 uM GlcN6P

>  <EXPERIMENTAL VALUE>
< 1e-05 s⁻¹

$$$$
>  <MUT>
C8G C11G

>  <READOUT NAME>
self-cleavage kobs at 160 uM GlcN6P

>  <EXPERIMENTAL VALUE>
< 1e-05 s⁻¹

$$$$
>  <MUT>
G44U C61A C67U C70G

>  <READOUT NAME>
self-cleavage kobs at 160 uM GlcN6P

>  <EXPERIMENTAL VALUE>
< 1e-05 s⁻¹

$$$$
>  <MUT>
G29U G63U

>  <READOUT NAME>
self-cleavage kobs at 160 uM GlcN6P

>  <EXPERIMENTAL VALUE>
< 1e-05 s⁻¹

$$$$
>  <MUT>
U47G A64G

>  <READOUT NAME>
self-cleavage kobs at 160 uM GlcN6P

>  <EXPERIMENTAL VALUE>
0.000742 s⁻¹

$$$$
>  <MUT>
C8U A14G A42C

>  <READOUT NAME>
self-cleavage kobs at 160 uM GlcN6P

>  <EXPERIMENTAL VALUE>
< 1e-05 s⁻¹

$$$$
>  <MUT>
A12U G32A

>  <READOUT NAME>
self-cleavage kobs at 160 uM GlcN6P

>  <EXPERIMENTAL VALUE>
6.52e-05 s⁻¹

$$$$
>  <MUT>
C58A G59C

>  <READOUT NAME>
self-cleavage kobs at 160 uM GlcN6P

>  <EXPERIMENTAL VALUE>
< 1e-05 s⁻¹

$$$$
>  <MUT>
G60A C61U

>  <READOUT NAME>
self-cleavage kobs at 160 uM GlcN6P

>  <EXPERIMENTAL VALUE>
< 1e-05 s⁻¹

$$$$
>  <MUT>
U31C A39C

>  <READOUT NAME>
self-cleavage kobs at 160 uM GlcN6P

>  <EXPERIMENTAL VALUE>
6.64e-05 s⁻¹

$$$$
>  <MUT>
G32C G44C

>  <READOUT NAME>
self-cleavage kobs at 160 uM GlcN6P

>  <EXPERIMENTAL VALUE>
< 1e-05 s⁻¹

$$$$
>  <MUT>
C10G G41C

>  <READOUT NAME>
self-cleavage kobs at 160 uM GlcN6P

>  <EXPERIMENTAL VALUE>
< 1e-05 s⁻¹

$$$$
>  <MUT>
G41U U69G

>  <READOUT NAME>
self-cleavage kobs at 160 uM GlcN6P

>  <EXPERIMENTAL VALUE>
< 1e-05 s⁻¹

$$$$
